- test.details: NCI Yeast Anticancer Drug Screen. Data for the cln2 rad14 strain (AID 165);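 further: 0% = growth equal to vehicle treated cultures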
- condition.details: S. cerevisiae cln2 rad14 strain, at 50.0 µM, hits give high values
Compounds without any hit were thinned out: in the full panel of roughly 79,000, 15% have a hit.
Property: growth inhibition; scope: individual compounds
The reply should contain only the number, in %.

Consider the worked cases shown below.
{"columns": ["compound", "growth inhibition (%)"],
 "data": [
  ["COC(=O)/C=C(/C=C1/C(C#N)=C(N)N(c2ccc(Cl)cc2)C1(C)/C(=C/C(=O)OC)C(=O)OC)C(=O)OC (stereo unspecified)", 6.95],
  ["Cc1ccc2cccc(OC(=O)Nc3cc(Cl)c(Cl)cc3Cl)c2n1", -4.8]
]}

Task: Given the entry `Nc1nc(=O)[nH]c2n[nH]nc12` , report its measured growth inhibition.
Result: -3.15

Task: Need growth inhibition, item COc1cc2c(cc1OC)[C@H]1C(COC(=O)Nc3ccccc3)CN1CC2 (stereo partly specified)
Result: -9.75

Task: // growth inhibition lookup, key: `OCCSC1CCCCC1`
Result: 0.1

Task: // query growth inhibition value for entry `CCOC(=O)/C(C)=C1\N=C(c2ccccc2)OC(=NC2CCCCC2)N1C1CCCCC1`
Result: 17.9

* * *

- test.details: NCI Yeast Anticancer Drug Screen. Data for the rad50 strain (AID 155);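 further: 0% = growth of vehicle-only cultures of the same strain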
- condition.details: S. cerevisiae rad50 strain growth inhibition; at 50.0 µM; hits give high values
- Description: Growth inhibition of yeast strains with defined genetic alterations is measured as a screen for potential anti-cancer activity. Selected strains with alterations in DNA damage repair or cell cycle control were exposed to compounds and growth inhibition was measured relative to vehicle treated controls. The strain used in this assay is rad50
Compounds without any hit were thinned out: in the full panel of roughly 79,000, 15% have a hit.
measure: growth inhibition (%)
Output spec: scalar in %, unitless text.

Some solved cases for reference:
{"columns": ["molecule", "u", "measured.number"],
 "data": [
  ["O=c1[nH]cnc2c1ncn2CCCCO", "%", -0.15],
  ["CCOc1ccc(/C=C2N=C(/C=C/c3ccccc3)OC\\2=O)cc1", "%", 19],
  ["C=C(C(N)=O)c1ccc([N+](=O)[O-])o1", "%", 52.4]
]}

Task: Find the recorded growth inhibition belonging to `COc1ccc(C(C)(C)C#N)cc1` and report it.
Result: -20.7

Task: Looking for the measured growth inhibition of CC(=O)NC(CCC(=O)C=[N+]=N)C(=O)O (centres undefined) , can you help?
Result: 18.4

Task: Query: growth inhibition; subject: `CC(C)NC(c1ccccc1)c1ccccc1`
Result: 0.3

* * *

- test.details: NCI Yeast Anticancer Drug Screen. Data for the cln2 rad14 strain (AID 165);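 further: 0% = growth equal to vehicle treated cultures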
- condition.details: S. cerevisiae cln2 rad14 strain, at 50.0 µM, hits give high values
The panel holds about 79,000 compounds, 15% with a hit somewhere; the sample as a whole holds those more often.
molecules and their reported growth inhibition
Provide only the numeric value, understood in %.

Answered cases to consult:
{"columns": ["molecule", "growth inhibition, %"],
 "data": [
  ["C=CC(=O)NC(C)C(=O)O (stereo not given)", -7.05],
  ["CC(=O)/C(=N/O)C(C)C", -0.35],
  ["Cc1ccc(S(=O)(=O)OCC2CC=CCC2COC(=O)c2ccc([N+](=O)[O-])cc2)cc1 (stereo not given)", 15.1],
  ["COc1ccc2c(c1)CCCN1Cc3cc(OC)c(OC)cc3CC21 (stereo not given)", 14],
  ["Cc1c(C(=O)Nc2ccc(Cl)cc2)nc(N)nc1-c1cccc(Cl)c1", 1.1],
  ["O=C(NCCc1ccccc1Br)c1ccccc1", 18.8]
]}

Task: I would be grateful if you could share the reported growth inhibition for `COc1cc(-c2cc(-c3cc([N+](=O)[O-])c(/C=N/NC(=O)c4ccncc4)o3)ccc2OC)ccc1C` .
Result: 26.9

Task: Could you share which growth inhibition value was measured for N#CCCSC(=S)C(C#N)C(=N)c1ccccc1 (stereo not given) ?
Result: 1.5

* * *

growth inhibition values for the compounds below.
- test.details: NCI Yeast Anticancer Drug Screen. Data for the cln2 rad14 strain (AID 165);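 further: 0% = growth equal to vehicle treated cultures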
- condition.details: S. cerevisiae cln2 rad14 strain, at 50.0 µM, hits give high values
Compounds without any hit were thinned out: in the full panel of roughly 79,000, 15% have a hit.
Respond with the bare value in %.

Before answering, review these 5 worked examples.
{"columns": ["compound", "u", "measured.number"],
 "data": [
  ["CN1C/C(=C\\c2ccc(C(=O)O)cc2)C(=O)/C(=C/c2ccc(C(=O)O)cc2)C1", "%", 20.9],
  ["CSC1=C(c2ccc(Cl)cc2)SC(N2CCCCC2)N1c1ccc([N+](=O)[O-])cc1 (stereo unspecified)", "%", 5.2],
  ["O=C1CS/C(=N/C(=O)Nc2ccc(Cl)cc2)N1", "%", -9.55],
  ["COc1ccc(N=Nc2c(-c3ccccc3)nn(C(=O)CC(=O)Nc3ccc(OC)cc3)c2-c2ccccc2)cc1", "%", -25.4],
  ["COc1ccc(-c2coc3cc(O)cc(O)c3c2=O)cc1", "%", 31.7]
]}

Moving on to the next compound.
Task: Name the reported growth inhibition value associated with the compound `NC(=O)c1[nH]c(N=Nc2ccc(S(N)(=O)=O)cc2)nc1N`
Result: -5.1

* * *

growth inhibition for assorted molecules
- test.details: NCI Yeast Anticancer Drug Screen. Data for the mec2-1 strain (AID 157)
- condition.details: S. cerevisiae mec2-1 strain, at 50.0 µM, hits give high values
This is part of a sample that, as a whole, favours compounds with a hit. Of some 79,000 tested, about 15% had one in any assay.
Form entry: value (%) — number only.

Solved cases below.
{"columns": ["molecule", "growth inhibition / %"],
 "data": [
  ["CS(=O)(=O)CC(O)(c1ccccc1)c1ccccc1", -2.4],
  ["C[n+]1c2ccccc2c(Oc2c3ccccc3[n+](C)c3ccccc23)c2ccccc21", 11.2],
  ["Cn1c2cc3ccccc3cc2nc2cc3c(cc21)c(Cl)c(=O)c1ccccc13", -3]
]}

Task: Would you kindly share the measured growth inhibition for `CCCCCCC1=CCCC1=O` ?
Result: -25.4

Task: Data request, read-out growth inhibition, for `COc1cc(NS(=O)(=O)c2ccccc2)c2nc3ccc(Cl)cc3nc2c1`
Result: -8.4

* * *

Listed here: items and their measured growth inhibition.
- test.details: NCI Yeast Anticancer Drug Screen. Data for the sgs1 mgt1 strain (AID 161);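 further: 0% = growth of cultures given vehicle only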
- condition.details: S. cerevisiae sgs1 mgt1 strain, at 50.0 µM, hits give high values
- Protocol: Growth inhibition of yeast strains with defined genetic alterations is measured as a screen for potential anti-cancer activity. Selected strains with alterations in DNA damage repair or cell cycle control were exposed to compounds and growth inhibition was measured relative to vehicle treated controls. The strain used in this assay is sgs1 mgt1
This is part of a sample that, as a whole, favours compounds with a hit. Of some 79,000 tested, about 15% had one in any assay.
Please reply with the bare figure in % and do not write the unit itself.

Use the examples below as a reference point.
{"columns": ["molecule", "measure", "measured.number"],
 "data": [
  ["c1ccc(CNC2CC3CCC2C3)cc1 (stereo unspecified)", "growth inhibition", -10.8],
  ["CCOc1c(CNC(=O)CCl)cc(N)cc1CNC(=O)CCl", "growth inhibition", -14],
  ["CSC(=O)c1sc(SC)[n+](-c2ccccc2)c1O", "growth inhibition", -1]
]}

# input for lookup
Task: For the molecule shown here, `CCN(CC)c1ccc(N=C2C=C(C(=O)Nc3ccccc3OC)C(=O)c3ccccc32)c(C)c1` , give the reported growth inhibition.
Result: -12.7

* * *

- test.details: NCI Yeast Anticancer Drug Screen. Data for the sgs1 mgt1 strain (AID 161);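 further: 0% = growth of cultures given vehicle only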
- condition.details: S. cerevisiae sgs1 mgt1 strain, at 50.0 µM, hits give high values
- Procedure: Growth inhibition of yeast strains with defined genetic alterations is measured as a screen for potential anti-cancer activity. Selected strains with alterations in DNA damage repair or cell cycle control were exposed to compounds and growth inhibition was measured relative to vehicle treated controls. The strain used in this assay is sgs1 mgt1
About 79,000 compounds went through this panel and 15% of them were active in at least one assay; those are over-represented in the sample as a whole.
Property: growth inhibition; scope: individual compounds
Express it in %; write the number only.

Example compounds with recorded growth inhibition:
{"columns": ["compound", "growth inhibition, %"],
 "data": [
  ["O=C(Oc1ccc(OC(=O)c2ccc([N+](=O)[O-])cc2)cc1)c1ccccc1", -1.4],
  ["O=C(NC(Cc1ccc(O)cc1)C(=O)O)C(=O)c1c[nH]c2ccc([N+](=O)[O-])cc12 (stereo not given)", -23.1]
]}

Task: Look up growth inhibition: `Cc1ccccc1NC(=O)Nc1ccc(Nc2ccccc2)cc1`
Result: 9.95

Task: Endpoint output: growth inhibition of `Cc1cccnc1Nc1ncccc1C` . Value?
Result: 10.9

Task: Look up growth inhibition: CN1CC(O)c2cc(N=NC(N)=O)c(O)cc21 (stereo not given)
Result: -4.85
